- method.notes: Clearance in healthy human at 1000 mg, iv administered as 1 hr infusion every 8 hrs for 10 days measured on day 10
- Type: ADME, organism-based
- test.conditions: in vivo
measured.quantity: clearance (mL/min)
Output spec: scalar in mL/min, unitless text.

## Task Query: clearance; subject: Cn1c(N)c(NC(=O)NCCN)c[n+]1CC1=C(C(=O)O)N2C(=O)[C@@H](NC(=O)/C(=N\OC(C)(C)C(=O)[O-])c3nsc(N)n3)[C@H]2SC1 [CEFTOLOZANE]
## Result 116

----------
- method.notes: Half-life in plasma of healthy human 500 mg, iv administered as 1 hr infusion every 8 hrs for 10 days measured on day 10
- Assay type: ADME, organism-based
measured.quantity: half-life (h)
Output spec: scalar in h, unitless text.

## Task Query: half-life; subject: `Cn1c(N)c(NC(=O)NCCN)c[n+]1CC1=C(C(=O)O)N2C(=O)[C@@H](NC(=O)/C(=N\OC(C)(C)C(=O)[O-])c3nsc(N)n3)[C@H]2SC1`
## Result 2.2

Sourced from ChEMBL document CHEMBL1275247
